Measured IC50 by item
- System: HUVEC
- procedure.summary: Cytotoxicity against HUVEC assessed as reduction in cell viability incubated for 48 hrs by MTT assay
- Assay type: cell-based
- study.conditions: Homo sapiens
assay.readout: IC50

* O=C(CCCCCNCc1cc(Cl)c2cccnc2c1O)Nc1ccccc1 | > 50 µM
* COc1ccc(S(=O)(=O)N(CC(=O)NO)CC(C)C)cc1 | > 250 µM
* O=C(CNCc1cc(Cl)c2cccnc2c1O)Nc1ccccc1 | > 50 µM
* Cc1[nH]c2ccccc2c1CCNC(=O)CCCCCNCc1cc(Cl)c2cccnc2c1O | > 50 µM
* CC1(C)SCCN(S(=O)(=O)c2ccc(Oc3ccncc3)cc2)[C@H]1C(=O)NO [PRINOMASTAT] | > 500 µM
* O=C(CCNCc1cc(Cl)c2cccnc2c1O)Nc1ccccc1 | > 50 µM
* O=C(CCCCNCc1cc(Cl)c2cccnc2c1O)Nc1ccccc1 | > 50 µM
* O=S(=O)(Nc1ccc(O)c2ncccc12)c1ccc(F)cc1 | > 50 µM
* O=C(CCCNCc1cc(Cl)c2cccnc2c1O)Nc1ccccc1 | > 50 µM
* Cc1[nH]c2ccccc2c1CCNC(=O)CCCNCc1cc(Cl)c2cccnc2c1O | > 50 µM

* * *

Listing of recorded pIC50 by entry.
- test.target: 72 kDa type IV collagenase (Homo sapiens)
- Sequence (P08253 whole entry): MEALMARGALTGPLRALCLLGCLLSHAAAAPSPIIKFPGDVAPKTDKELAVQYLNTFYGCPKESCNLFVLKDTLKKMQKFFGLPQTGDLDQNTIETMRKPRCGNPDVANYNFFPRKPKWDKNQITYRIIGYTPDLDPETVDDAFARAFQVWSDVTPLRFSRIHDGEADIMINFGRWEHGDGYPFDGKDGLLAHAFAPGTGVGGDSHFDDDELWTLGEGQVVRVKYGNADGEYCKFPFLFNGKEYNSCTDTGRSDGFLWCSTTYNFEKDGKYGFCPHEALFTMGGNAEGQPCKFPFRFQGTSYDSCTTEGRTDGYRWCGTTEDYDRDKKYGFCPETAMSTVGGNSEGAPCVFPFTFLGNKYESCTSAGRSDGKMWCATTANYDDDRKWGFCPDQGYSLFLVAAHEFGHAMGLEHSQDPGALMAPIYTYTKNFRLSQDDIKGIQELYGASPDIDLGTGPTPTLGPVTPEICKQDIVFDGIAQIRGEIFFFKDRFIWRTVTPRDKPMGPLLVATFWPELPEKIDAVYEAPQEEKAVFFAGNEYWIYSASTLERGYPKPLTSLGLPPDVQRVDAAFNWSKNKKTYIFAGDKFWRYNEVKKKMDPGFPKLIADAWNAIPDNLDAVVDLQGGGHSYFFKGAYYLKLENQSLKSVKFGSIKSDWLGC
- procedure.summary: Inhibition of recombinant human MMP2 using thiopeptide as substrate preincubated for 30 mins followed by substrate addition and measured every mins for 20 min by colorimetric assay
pIC50: −log10 of the molar value.
assay.readout: pIC50

* O=C(CCNCc1cc(Cl)c2cccnc2c1O)Nc1ccccc1 | 5.48
* Cc1[nH]c2ccccc2c1CCNC(=O)CCCCCNCc1cc(Cl)c2cccnc2c1O | 5.44
* CN(CCCCC(=O)Nc1ccc(O)c2ncccc12)c1ccccc1 | 5.12
* O=C(CCCNCc1ccc(O)c2ncccc12)Nc1ccccc1 | 5.24

* * *

Entries and their measured IC50 follow.
- test.target: UniProt:P14780
- Sequence (P14780 whole entry): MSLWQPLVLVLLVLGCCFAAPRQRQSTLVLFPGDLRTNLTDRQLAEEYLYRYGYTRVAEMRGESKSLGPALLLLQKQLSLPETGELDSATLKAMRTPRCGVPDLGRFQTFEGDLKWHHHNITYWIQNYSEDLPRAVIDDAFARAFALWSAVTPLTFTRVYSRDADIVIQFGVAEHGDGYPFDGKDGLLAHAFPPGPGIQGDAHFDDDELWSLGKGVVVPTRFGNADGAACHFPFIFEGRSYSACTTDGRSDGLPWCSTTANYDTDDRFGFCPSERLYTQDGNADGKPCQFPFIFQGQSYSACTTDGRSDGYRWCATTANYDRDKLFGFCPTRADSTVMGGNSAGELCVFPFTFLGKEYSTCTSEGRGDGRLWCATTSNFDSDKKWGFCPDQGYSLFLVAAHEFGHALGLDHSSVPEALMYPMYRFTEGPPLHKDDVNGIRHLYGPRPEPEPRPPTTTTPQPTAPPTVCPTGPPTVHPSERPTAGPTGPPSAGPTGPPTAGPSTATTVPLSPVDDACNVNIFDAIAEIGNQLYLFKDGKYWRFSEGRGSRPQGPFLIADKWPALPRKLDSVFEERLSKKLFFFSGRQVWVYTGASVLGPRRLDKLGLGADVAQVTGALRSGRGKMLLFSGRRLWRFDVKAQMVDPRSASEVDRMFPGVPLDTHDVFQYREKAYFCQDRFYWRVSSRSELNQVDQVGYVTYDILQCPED
- procedure.summary: Inhibition of recombinant human MMP9 using thiopeptide as substrate preincubated for 30 mins followed by substrate addition and measured every min for 20 mins by colorimetric assay
assay.readout: IC50

- Cc1[nH]c2ccccc2c1CCNC(=O)CCCNCc1ccc(O)c2ncccc12: > 10 µM
- O=C(CCCCNCc1ccc(O)c2ncccc12)Nc1ccccc1: > 10 µM
- Cc1nc2ccccc2n1CCC(=O)Nc1ccc(O)c2ncccc12: > 10 µM
- O=C(CCCCNCc1cc(Cl)c2cccnc2c1O)Nc1ccccc1: 3.6 µM
- O=C(CCN1C(=O)c2ccccc2S1(=O)=O)Nc1ccc(O)c2ncccc12: > 10 µM
- O=S(=O)(Nc1ccc(O)c2ncccc12)c1ccc(F)cc1: 11 µM
- COc1ccc(S(=O)(=O)N(CC(=O)NO)CC(C)C)cc1: 0.0088 µM
- CN(CCCCCC(=O)Nc1ccc(O)c2ncccc12)c1ccccc1: > 10 µM
- Cc1[nH]c2ccccc2c1CCNC(=O)CCCCNCc1cc(Cl)c2cccnc2c1O: 3.1 µM
- O=C(CCCCCN1C(=O)c2ccccc2S1(=O)=O)Nc1ccc(O)c2ncccc12: > 10 µM
- O=C(CCNCc1ccc(O)c2ncccc12)Nc1ccccc1: > 10 µM

* * *

- test.target: UniProtKB P08253
- procedure.summary: Inhibition of recombinant human MMP2 using thiopeptide as substrate preincubated for 30 mins followed by substrate addition and measured every mins for 20 min by colorimetric assay
# IC50 per record follows
assay.readout: IC50 (µM)

- O=C(CCCNCc1cc(Cl)c2cccnc2c1O)Nc1ccccc1: 3.8
- COc1ccc(S(=O)(=O)N(CC(=O)NO)CC(C)C)cc1: 0.0091

Recorded values, source ChEMBL document CHEMBL4406825.
